organism: Homo sapiens; test: Selectivity ratio of IC50 for human integrin alphavbeta6 receptor to IC50 for human integrin alphavbeta8 receptor
Non-standard residues stand in square brackets, D forms with d. Residues, ends and D or L forms follow the SMILES beside them. NMeK = CN[C@@H](CCCCN)C(=O)O
result-type: Ratio IC50
Please give only the number in your answer, with no unit.

*Q* Please report the recorded Ratio IC50 for "CC(C)C[C@@H]1NC(=O)[C@H](C)NC(=O)[C@@H]2CCCN2C(=O)[C@H]2CCCN2C(=O)[C@H](CC(C)C)NC(=O)[C@H](CC(=O)O)NC(=O)CNC(=O)[C@H](CCCNC(=N)N)NC(=O)[C@H](C)NC(=O)[C@H](C)NC1=O" .
*A* 1.6

*Q* Please report the recorded Ratio IC50 for "CCCC[C@@H]1NC(=O)[C@H](CC(=O)O)NC(=O)CNC(=O)[C@H](CCCNC(=N)N)NC(=O)[C@H](Cc2ccccc2)NC(=O)[C@H](C)NC(=O)[C@@H]2CCCN2C(=O)[C@H]2CCCN2C1=O" .
*A* 3.7

*Q* Please report the recorded Ratio IC50 for CC(=O)NCCCC[C@H]1C(=O)NCC(=O)N[C@@H](CC(C)C)C(=O)N[C@@H](CCCNC(=N)N)C(=O)NCC(=O)N[C@@H](CC(=O)O)C(=O)N[C@@H](CC(C)C)C(=O)N2CCC[C@@H]2C(=O)N1C (cyclo(RGDL[dP][NMeK](Ac)GL)) .
*A* 12

====

Give measured pIC50 for each item. Keep answers brief.
target: Integrin alpha-V/beta-8 (Homo sapiens, UniProt P06756+P26012); test: Inhibition of LAP binding to human integrin alphavbeta8 receptor after 1 hr by solid-phase binding assay; type: protein-complex assay; details: read-out: IC50
Sequence (P06756 31-889 limits assumed): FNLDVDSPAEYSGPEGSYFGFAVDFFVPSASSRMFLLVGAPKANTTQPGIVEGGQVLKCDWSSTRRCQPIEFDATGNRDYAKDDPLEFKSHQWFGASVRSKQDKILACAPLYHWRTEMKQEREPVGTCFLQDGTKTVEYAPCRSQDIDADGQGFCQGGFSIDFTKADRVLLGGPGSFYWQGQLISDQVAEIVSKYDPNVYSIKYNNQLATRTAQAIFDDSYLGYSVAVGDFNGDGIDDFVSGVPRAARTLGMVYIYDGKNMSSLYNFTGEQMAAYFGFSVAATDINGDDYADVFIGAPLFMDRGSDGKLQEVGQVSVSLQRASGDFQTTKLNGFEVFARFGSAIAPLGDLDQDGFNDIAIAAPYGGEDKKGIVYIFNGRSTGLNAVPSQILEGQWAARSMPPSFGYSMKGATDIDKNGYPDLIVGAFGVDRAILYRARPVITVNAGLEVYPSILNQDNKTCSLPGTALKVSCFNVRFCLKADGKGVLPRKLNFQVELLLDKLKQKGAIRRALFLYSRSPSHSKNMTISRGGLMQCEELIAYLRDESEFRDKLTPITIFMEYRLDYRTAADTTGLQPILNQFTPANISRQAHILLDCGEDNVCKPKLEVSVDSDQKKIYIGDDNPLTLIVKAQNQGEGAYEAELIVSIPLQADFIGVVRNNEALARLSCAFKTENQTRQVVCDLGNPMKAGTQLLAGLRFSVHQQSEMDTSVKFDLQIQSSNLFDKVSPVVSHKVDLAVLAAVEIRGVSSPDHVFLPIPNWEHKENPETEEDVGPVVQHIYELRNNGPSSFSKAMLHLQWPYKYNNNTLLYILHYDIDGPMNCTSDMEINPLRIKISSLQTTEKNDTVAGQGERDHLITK
Sequence (P06756 891-1048 limits assumed): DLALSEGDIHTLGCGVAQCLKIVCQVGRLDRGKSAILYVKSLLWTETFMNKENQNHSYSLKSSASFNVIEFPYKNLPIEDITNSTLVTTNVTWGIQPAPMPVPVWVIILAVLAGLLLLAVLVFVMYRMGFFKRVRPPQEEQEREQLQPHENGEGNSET
Sequence (P26012 43-769 limits assumed): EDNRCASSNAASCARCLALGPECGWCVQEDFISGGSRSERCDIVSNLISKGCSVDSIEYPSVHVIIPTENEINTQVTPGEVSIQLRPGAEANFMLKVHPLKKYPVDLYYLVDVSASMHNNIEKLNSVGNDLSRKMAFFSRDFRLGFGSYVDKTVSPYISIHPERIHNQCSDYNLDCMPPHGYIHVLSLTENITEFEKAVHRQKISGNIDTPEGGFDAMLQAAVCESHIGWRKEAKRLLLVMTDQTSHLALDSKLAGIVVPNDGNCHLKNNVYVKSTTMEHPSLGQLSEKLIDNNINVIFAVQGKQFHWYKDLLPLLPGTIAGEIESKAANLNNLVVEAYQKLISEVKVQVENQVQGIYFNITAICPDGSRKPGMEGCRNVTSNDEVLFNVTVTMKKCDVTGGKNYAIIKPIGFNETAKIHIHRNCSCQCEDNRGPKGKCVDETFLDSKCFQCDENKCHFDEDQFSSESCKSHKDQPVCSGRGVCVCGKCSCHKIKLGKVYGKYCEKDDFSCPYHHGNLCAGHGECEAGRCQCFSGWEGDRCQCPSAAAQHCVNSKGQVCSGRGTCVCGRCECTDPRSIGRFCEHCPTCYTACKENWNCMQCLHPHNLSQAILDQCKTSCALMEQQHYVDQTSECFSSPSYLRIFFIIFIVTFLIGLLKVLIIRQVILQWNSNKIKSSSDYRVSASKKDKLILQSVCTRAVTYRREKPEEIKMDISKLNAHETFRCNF
Non-standard residues stand in square brackets, D forms with d. Residues, ends and D or L forms follow the SMILES beside them. NMeK = CN[C@@H](CCCCN)C(=O)O
In plain terms, pIC50 is the concentration in mol/L turned into minus its base-10 logarithm.

*Q* Please report the recorded pIC50 for CC(=O)NCCCC[C@H]1C(=O)NCC(=O)N[C@@H](CC(C)C)C(=O)N[C@@H](CCCNC(=N)N)C(=O)NCC(=O)N[C@@H](CC(=O)O)C(=O)N[C@@H](CC(C)C)C(=O)N2CCC[C@@H]2C(=O)N1C (cyclo(RGDL[dP][NMeK](Ac)GL)) .
*A* 8.10

*Q* Please report the recorded pIC50 for "CC(C)C[C@@H]1NC(=O)[C@H](CC(=O)O)NC(=O)CNC(=O)[C@H](CCCNC(=N)N)NC(=O)[C@H](CC(=O)O)NC(=O)[C@H](C)NC(=O)[C@@H]2CCCN2C(=O)[C@H]2CCCN2C1=O" .
*A* 8.20

*Q* Please report the recorded pIC50 for "CC(C)C[C@@H]1NC(=O)[C@H](C)NC(=O)[C@H](C(C)C)N(C)C(=O)[C@H]2CCCN2C(=O)[C@H](CC(C)C)NC(=O)[C@H](CC(=O)O)NC(=O)CNC(=O)[C@H](CCCNC(=N)N)NC1=O" .
*A* 7.36

*Q* Please report the recorded pIC50 for "CC(C)C[C@@H]1NC(=O)[C@H](CC(=O)O)NC(=O)[C@H]([C@@H](C)O)NC(=O)[C@H](CCCNC(=N)N)NC(=O)[C@H](C)NC(=O)[C@@H]2CCCN2C(=O)[C@H]2CCCN2C(=O)[C@H](CC(C)C)NC(=O)[C@H](C)NC(=O)[C@H](C)NC1=O" .
*A* 5.89

*Q* Please report the recorded pIC50 for "CC(C)C[C@@H]1NC(=O)[C@@H]2CCCN2C(=O)[C@H]2CCCN2C(=O)[C@H](CC(C)C)NC(=O)[C@H](CC(=O)O)NC(=O)CNC(=O)[C@H](CCCNC(=N)N)NC(=O)[C@H](C)NC1=O" .
*A* 6.94

*Q* Please report the recorded pIC50 for "CC(C)C[C@@H]1NC(=O)[C@H](C)NC(=O)[C@H](C)NC(=O)[C@@H]2CCCN2C(=O)[C@H]2CCCN2C(=O)[C@H](CC(C)C)NC(=O)[C@H](CC(=O)O)NC(=O)[C@H]([C@@H](C)O)NC(=O)[C@H](CCCNC(=N)N)NC(=O)[C@H](C)NC1=O" .
*A* 6.90
